Assay: inhibitors of hydroxyurea-induced Chk1 phosphorylation, primary screen, imaging, HeLa, phospho-Chk1 antibody, percent positive cells (AID 1186)
Settings: hydroxyurea-induced phospho-Chk1 immunofluorescence imaging, higher = more signal
measured.attribute: z-score

| compound | numeric.result |
| --- | --- |
| COCCOC(=O)N1C(=O)[C@@]2(c3cc(C#CCNC(N)=O)ccc31)[C@H](c1ccc(OCCO)cc1)N1[C@H](c3ccccc3)[C@H](c3ccccc3)OC(=O)[C@H]1[C@@H]2C(=O)Nc1nc2ccccc2s1 | 0.0818 |
| COc1cc(CO)cc(I)c1O[C@H]1C=C(C(=O)NCCO)C[C@@H](N(CC2CCCCC2)C(=O)c2cc3ccccc3oc2=O)[C@@H]1O | 0.113 |
| O=C1OCC=C[C@H]2OC34C=CCN(Cc5ccccc5)C(=O)[C@H]3N(CCCCCO)C(=O)[C@@H]4[C@@H]12 (some centres not stated) | 0.729 |
| O=C(NCc1ccccc1)[C@@]1(Cc2ccccc2)COC(c2ccc(OCCCO)cc2)=N1 | -0.583 |
| [N-]=[N+]=Nc1ccccc1C[C@@]1(C(=O)N2CCOCC2)N=C(c2ccc(OCCCO)cc2)O[C@@H]1c1ccccc1N=[N+]=[N-] | -1.03 |
| [N-]=[N+]=NCc1ccccc1C[C@@]1(C(=O)N2CCOCC2)N=C(c2ccc(OCCCO)cc2)O[C@@H]1c1ccccc1N=[N+]=[N-] | -0.269 |
| C=CCC1=C[C@H]2[C@H]([C@@H]3C=C[C@]2(CC=C)C(=O)[C@]32CO2)[C@@]2(CO2)C1=O | -0.556 |

====

Assay: binders of probe aFGF10 on microarray, primary screen, stem cell growth factor project, biochemical, small-molecule microarray, fluorescence 635/667 (AID 1071);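 note: score merges 667 nm spot intensity and signal to noise from triplicate slides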
Details: higher = more signal
composite z-score reference

| compound.structure.string | composite z-score |
| --- | --- |
| COc1ccc([Si](C)(C)[C@H]2[C@H](CCO)O[C@@]3(C(=O)N(Cc4ccc(N5CCCCC5=O)cc4)c4ccccc43)[C@@H]2C)cc1 | -0.0971 |
| Cc1ccc(N2C(=O)c3ccccc3[C@](C)(C(=O)NCC(C)C)[C@@H]2c2ccc(CO)cc2)nc1 | -0.662 |
| CO[C@H]1COC(=O)[C@@H](C)NC(=O)CC=C[C@@H](C)[C@H](OC)COC(=O)CC=C[C@@H]1C | -0.895 |
| CCOC(=O)C1=CC[C@@H](c2ccc(-c3ccc(OCc4ccccc4)cc3)c(OC)c2)N(S(=O)(=O)c2ccc(C)cc2)[C@H]1c1ccccc1 | 0.668 |
| C[C@H]1COC(=O)[C@@H]2CCCN2C(=O)[C@@H](C)COC(=O)[C@@H]2CCCN2C1=O | 0.0646 |
| COc1ccc(-c2ccccc2[C@@H]2N[C@H](C(=O)O)CC[C@H]2C)cc1 | 0.277 |
| C[C@@H]1NC(=O)CC=C[C@@H](C)[C@@H]2C=C[C@H](O)[C@@H](COC(=O)[C@H](C)NC(=O)CC=C[C@@H](C)[C@@H]3C=C[C@H](O)[C@@H](COC1=O)O3)O2 | 0.216 |

====

Each entry below carries its recorded composite z-score.
Molecular target: Dihydroorotate dehydrogenase (quinone), mitochondrial (Plasmodium falciparum (isolate 3D7))
Experiment: PfDHODH enzyme inhibitors, primary screen, biochemical, C-terminal His tag, absorbance 600 nm (AID 1175);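 note: recombinant parasite enzyme with a five histidine tag at its C terminus; test concentration not given here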
Settings: DCIP absorbance 600 nm, higher = more signal, called active from +8 up or from −8 down
measured.attribute: composite z-score

| compound | measured.attribute | numeric.result |
| --- | --- | --- |
| CC(C)[Si](OCCCNS(=O)(=O)c1ccc(Br)cc1)(C(C)C)C(C)C | composite z-score | 0.0026 |
| CC(C)(C)OC(=O)CC[C@]1(C(=O)N2CCCCC2)N=C(c2ccc(OCCCO)cc2)O[C@H]1c1ccccc1 | composite z-score | -0.892 |
| CCOC(=O)C[C@H]1[C@H](OC(=O)c2cc3ccccc3oc2=O)[C@@H](NC(=O)C2CCCCC2)c2cc(OCCCO)ccc2N1C(=O)c1ccc2ccccc2n1 | composite z-score | 0.884 |
| O=C1O[C@@H](c2ccccc2)[C@@H](c2ccccc2)N2[C@@H](c3ccc(OCCO)cc3)[C@]3(C(=O)Nc4ccc(C#CCCO)cc43)[C@@H](C(=O)N3CCN(c4ncccn4)CC3)[C@H]12 | composite z-score | -1.58 |
| COC(=O)C[C@H]1O[C@]2(C(=O)N(Cc3ccccc3)c3ccc(I)cc32)[C@@H](C)[C@@H]1[Si](C)(C)c1ccc(OC)cc1 | composite z-score | 0.94 |
| CO[C@H]1COC(=O)[C@@H](Cc2ccccc2)NC(=O)[C@@H](C)COC(=O)CC=C[C@@H]1C | composite z-score | 0.0602 |
| Cc1ccc(S[C@]2(C(=O)O)CC(=O)N(Cc3cc(C(F)(F)F)cc(C(F)(F)F)c3)[C@@H]2c2ccc(CO)cc2I)cc1 | composite z-score | 0.0643 |
| COCCOC(=O)N1C(=O)[C@@]2(c3cc(C#CCNC(N)=O)ccc31)[C@H](c1ccc(OCCO)cc1)N1[C@H](c3ccccc3)[C@H](c3ccccc3)OC(=O)[C@H]1[C@@H]2C(=O)N1CCCCCCC1 | composite z-score | 0.0238 |
| COCC(=C=CC[C@H](O)c1ccc(OCCO)cc1)C[C@H](O)c1ccccn1 | composite z-score | -0.86 |
| CO[C@H]1O[C@H](CO)[C@@H](OC(=O)Nc2ccc3c(c2)OCO3)[C@H](OC(=O)Nc2ccccc2)[C@@H]1OC(=O)Nc1ccccc1 | composite z-score | -0.0612 |
| O=C1NC(=O)C2C1C=CC(C(O)C=Cc1ccc([N+](=O)[O-])cc1)N2Nc1ccccn1 (centres undefined) | composite z-score | 0.643 |
| CN1CCC(CCCO)=CC1C1CC1 (centres undefined) | composite z-score | -1.13 |
| C[C@@H]1NC(=O)CC=C[C@@H](C)[C@@H]2C=C[C@H](O)[C@@H](COC(=O)[C@H](C)NC(=O)CC=C[C@@H](C)[C@@H]3C=C[C@H](O)[C@@H](COC1=O)O3)O2 | composite z-score | 0.633 |
| COc1ccc(C(=O)Nc2ccc(CN3C(=O)[C@]4(O[C@H](CCn5cc(CCO)nn5)[C@@H]([Si](C)(C)c5ccc(OC)cc5)[C@@H]4C)c4ccccc43)cc2)cc1 | composite z-score | 0.597 |

====

Assay: COS7 lysate on small-molecule microarray, probe aHis, 635 nm (AID 1123);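 note: z-score combines 667nm fluorescence intensity with signal-to-noise per printed compound spot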
Conditions: COS7 cell lysate, fluorescence, higher = more signal
In this section we review reported composite z-score values for a set of compounds.
measured.attribute: composite z-score

| compound.structure.string | measured.attribute | result |
| --- | --- | --- |
| CC(C)C[C@@H]1NC(=O)[C@H]2C[C@@H](C(=O)NCCCCCC[N+](C)(C)C)[C@@H](c3ccc(O)cc3)N2C1=O | composite z-score | 0.439 |
| O=C(O)[C@@H]1Cc2c([nH]c3ccccc23)[C@@H](c2ccccc2)N1 | composite z-score | 0.319 |
| CO[C@H]1O[C@H](CO)[C@@H](OC(=O)CCc2ccccc2)[C@@H]2OC(=O)[C@H](Cc3cccc(Br)c3)C/C=C/C[C@@H](Cc3cccc(Br)c3)C(=O)O[C@@H]12 | composite z-score | 1.04 |
| C=CC[C@]1(C(N)=O)N=C(c2ccc(OCCCO)cc2)O[C@H]1c1ccccc1CN=[N+]=[N-] | composite z-score | 2.69 |

====

Target: Concanavalin-A (Canavalia ensiformis) (UniProt P02866)
Sequence (P02866 whole entry, looked up): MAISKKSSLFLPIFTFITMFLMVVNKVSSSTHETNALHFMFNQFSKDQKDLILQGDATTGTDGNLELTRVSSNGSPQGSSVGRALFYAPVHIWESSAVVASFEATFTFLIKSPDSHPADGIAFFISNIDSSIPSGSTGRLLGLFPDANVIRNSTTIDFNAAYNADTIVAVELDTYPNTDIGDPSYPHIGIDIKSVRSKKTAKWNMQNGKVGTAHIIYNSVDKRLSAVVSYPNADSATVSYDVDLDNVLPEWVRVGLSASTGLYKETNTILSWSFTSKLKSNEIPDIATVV
Experiment: ConA small-molecule binders, primary screen, artefact control for SMM control protein annotation, biochemical, small-molecule microarray, Alexa647 label, 635 nm (AID 1127);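 note: z combines 667 nm emission intensity with signal-to-noise across three replicate slides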
Details: ConA-A647 binding fluorescence, higher = more signal
Classification field: TRUE = composite z-score at or over -0.6; FALSE = composite z-score under -0.6.

| compound | class.label |
| --- | --- |
| COCCOC(=O)N1C(=O)[C@@]2(c3cc(C#CCNC(N)=O)ccc31)[C@H](c1ccccc1OCCO)N1[C@H](c3ccccc3)[C@H](c3ccccc3)OC(=O)[C@H]1[C@@H]2C(=O)NC[C@H](O)c1ccccc1 | TRUE |
| CC(=O)Nc1ccc([C@H]2[C@H](C)CC[C@H]3C(=O)N4[C@@H](CC[C@@H](C)[C@@H]4c4ccc(NC(C)=O)cc4)C(=O)N32)cc1 | TRUE |
| COC(=O)[C@@]1(Cc2ccc(OC)cc2)[C@H]2c3cc(C(=O)N(C)C)n(Cc4ccc(C)c(F)c4F)c3C[C@H]2CN1C(=O)c1ccccc1 | TRUE |
| CC(C)[C@H]1NC(=O)[C@@]23C(=O)N[C@@H](Cc4ccccc4)C2[C@H](C)[C@@]2(C)O[C@H]2C3/C=C/C/C=C\CNC(=O)[C@H](C)NC1=O (some centres undefined) | FALSE |
| CN(C)CCCC[C@@H]1NC(=O)[C@@H]2C[C@H](C(=O)O)[C@H](c3ccc(O)cc3)N2C1=O | TRUE |
| CCC1=C2CN(Cc3ccccc3Br)[C@@H]([C@@H](O)Cc3ccccc3)C2C=CCC1 (some centres undefined) | TRUE |
| CC(=O)NCCCC[C@@H]1NC(=O)[C@H]2C[C@@H](C(=O)NCCCCCCN(C)C)[C@@H](c3cccc(OCCO)c3)N2C1=O | TRUE |
| C=CCC1=C[C@H]2[C@H]([C@@H]3C=C[C@]2(CC=C)C(=O)[C@]32CO2)[C@@]2(CO2)C1=O | FALSE |
| COCCOC(=O)N1C(=O)[C@@]2(c3cc(C#CC4=CCCCC4)ccc31)[C@H](C(=O)NC[C@H](O)c1ccccc1)[C@H]1C(=O)O[C@H](c3ccccc3)[C@H](c3ccccc3)N1[C@@H]2c1ccc(OCCO)cc1 | TRUE |
| C=C(COC)/C(=C/C[C@@H](OC(C)=O)c1cccc(OCCO)c1)c1cc(C(=O)OC)ccc1OC | FALSE |
| CO[C@H]1COC(=O)[C@@H](C)NC(=O)CC=C[C@@H](C)[C@H](OC)COC(=O)CC=C[C@@H]1C | FALSE |
| O=C(NCc1ccccc1)[C@@]1(CCS(=O)(=O)c2ccccc2)COC(c2ccc(OCCCO)cc2)=N1 | TRUE |
| Cc1ccc(S(=O)(=O)c2cc3oc2CC[C@@H](CO)NC(=O)N(C)Cc2cn(nn2)C[C@H](Cc2ccccc2)NC3=O)cc1 | TRUE |
